# Test system: RAW264.7
# Test: Antiinflammatory activity in mouse RAW264.7 cells assessed as inhibition of LPS-induced nitric oxide production
# Format: functional, cell-based
Measurement Name: IC50 (µM)
// note: answer is a bare numeric in µM

IN: Report IC50 for CNC(=O)c1ccc(CN2C(=O)c3ccccc3S2(=O)=O)cc1 tested on RAW264.7.
OUT: 37.7

IN: Report IC50 for CC(C)(C)OC(=O)N(Cc1ccco1)C(=O)c1ccc(CN2Cc3ccccc3C2=O)cc1 tested on RAW264.7.
OUT: 51.8

IN: Report IC50 for CN(C(=O)OC(C)(C)C)C(=O)c1ccc(CN2C(=O)c3ccccc3S2(=O)=O)cc1 tested on RAW264.7.
OUT: 42

IN: Report IC50 for O=C(NCc1ccco1)c1ccc(CN2Cc3ccccc3S2(=O)=O)cc1 tested on RAW264.7.
OUT: 68.4

IN: Report IC50 for O=C(NCc1ccco1)c1ccc(Cn2oc3ccccc3c2=O)cc1 tested on RAW264.7.
OUT: 49.3

IN: Report IC50 for CC(C)(C)OC(=O)N(Cc1ccco1)C(=O)c1ccc(CN2C(=O)c3ccccc3S2(=O)=O)cc1 tested on RAW264.7.
OUT: 2.61

IN: Report IC50 for COC(=O)N(Cc1ccco1)C(=O)c1ccc(CN2C(=O)c3ccccc3S2(=O)=O)cc1 tested on RAW264.7.
OUT: 76

IN: Report IC50 for O=C(c1ccc(Cn2sc3ccccc3c2=O)cc1)N1CCCCC1 tested on RAW264.7.
OUT: 5.38

IN: Report IC50 for O=C(c1ccc(CN2C(=O)c3ccccc3S2(=O)=O)cc1)N1CCCCC1 tested on RAW264.7.
OUT: 50.6

Value source: ChEMBL document CHEMBL3351672
